This collection of values is drawn from PubChem BioAssay (NCI).

# Test system: SNB-75 CNS
# Test name: NCI-60 one-dose screen, 48 h
# Protocol conditions: 10 µM unless noted
The panel holds about 83,000 compounds, 20% with a hit somewhere; the sample as a whole holds those more often. Active and inactive are the calls of the source. How the source made its calls: active means growth percent below 10; inactive means the rest.
Valid outcomes are listed here; reply with one: yes (1) for active, no (0) for inactive

Recorded test outcome, item "COC(=O)c1cc(-c2cc(OC)c(OC)c(OC)c2)[nH]c1N/N=C/c1c(Cl)cccc1Cl"
yes (1)

Recorded test outcome, item "Nc1nc(Nc2ccc([N+](=O)[O-])cc2O)nc(C(Cl)(Cl)Cl)n1"
no (0)

Recorded test outcome, item "COc1ccc(CNc2c3ccccc3nc3ccccc23)cc1OC"
no (0)

Recorded test outcome, item "Cc1nn(-c2ccccc2)c(Oc2ccccc2)c1/C=N/NC(=O)Cn1c(=O)sc2ccccc21"
no (0)
